experiment: Caco-2 membrane permeability and efflux test; assay type: in vitro ADME; details: human, Caco-2, B-A, Caco-2 monolayer, 37° C., 90 minutes, Sample-02; read-out: Papp Sample-02
Hi! Could you tag entries with Papp B→A at 90 min below 20 ×10⁻⁶ cm/s as t, and those at or above as f? Much appreciated.

molecule: Nc1ncnc2c1c(-c1ccc(Oc3ccccc3)cc1)nn2C1CCN(CCCCCOCCOc2ccc3c(c2)CN(C2CCC(=O)NC2=O)C3=O)CC1 (centres unmarked) [Compound 1]
qualitative.label: t
//
molecule: Nc1ncnc2c1c(-c1ccc(Oc3ccccc3)cc1)nn2C1CCN(CCOCCCCCOc2ccc3c(c2)CN(C2CCC(=O)NC2=O)C3=O)CC1 (centres unmarked) [Compound 2]
qualitative.label: t
//
molecule: Nc1ncnc2c1c(-c1ccc(Oc3ccccc3)cc1)nn2C1CCCN(CCOCCOCCOCCOCCNc2cccc3c2C(=O)N(C2CCC(=O)NC2=O)C3=O)C1 (centres unmarked) [Control compound 2]
qualitative.label: t
//
molecule: Nc1ncnc2c1c(-c1ccc(Oc3ccccc3)cc1)nn2C1CCN(CCOCCOCCNc2ccc3c(c2)C(=O)N(C2CCC(=O)NC2=O)C3=O)CC1 (centres unmarked) [Control compound 3]
qualitative.label: f
//
molecule: Nc1ncnc2c1c(-c1ccc(Oc3ccccc3)cc1)nn2C1CCN(CCOCCOCCNc2ccc3c(c2)CN(C2CCC(=O)NC2=O)C3=O)CC1 (centres unmarked) [Control compound 1]
qualitative.label: f
